Origin of the recorded values: PubChem BioAssay AID1996

conditions: buffer; pH 7.4; 200.0 µM
endpointLabel: solubility kinetic

Report solubility kinetic for COc1ccc(S(=O)(=O)N2CCCCCC2)cc1N please. > 42.7 µg/mL

Which solubility kinetic is reported for this compound? CN(C)NC(=S)NC1CC2CCC1C2 (stereo not given) > 32 µg/mL

Any idea what its solubility kinetic is? The compound is Cc1nnc(SCC(=O)N(C)C2CCCCC2)s1 > 42.8 µg/mL

Could you share which solubility kinetic value was measured for Cc1ccc(-c2nc3ccccc3c(=O)n2-c2cccc(C)n2)cc1 ? > 49.1 µg/mL

// lookup solubility kinetic for CCC(CC)NC(=O)Cc1ccc(F)cc1 > 33.5 µg/mL

---

details: buffer; pH 7.4; 200.0 µM
Consider the following compounds; for each one, report its solubility kinetic.

Return reported solubility kinetic; argument: CCOC(=O)N1CCC(NC(=O)c2ccccc2C(=O)O)CC1 > 0.0481 mg/mL

Consider the compound Cc1ncc([N+](=O)[O-])n1CCO and give its measured solubility kinetic. > 0.0257 mg/mL

Looking for the measured solubility kinetic of CCn1c(=O)c([N+](=O)[O-])c(NCCCn2ccnc2)c2ccccc21 , can you help? > 0.0512 mg/mL

What does the data say about its solubility kinetic? Entry: CN1CC(=O)N(CC(=O)NC2CCCCC2)C1=O > 0.038 mg/mL

Quick one: solubility kinetic for CCN(CC(=O)NCc1ccc(F)cc1)C(=O)C1CC1C (centres undefined) ? > 0.0439 mg/mL

Dear colleague, I am looking for the recorded solubility kinetic of the following compound: CC(C)CCNC(=O)C1c2ccccc2Oc2ccccc21 < 0.0006 mg/mL

Which solubility kinetic is listed for COc1ccc(CCNC(=O)/C=C/C(=O)O)cc1OC ? > 0.0419 mg/mL

Need solubility kinetic, item COC(=O)c1ccc(NC(=O)c2cc(Cl)ccc2OC)cc1 < 0.0007 mg/mL

# query: solubility kinetic of entry CC(C)CC1NC(=O)N(CC(=O)Nc2cc([N+](=O)[O-])ccc2F)C1=O (centres undefined) > 0.0528 mg/mL

Please report the recorded solubility kinetic for Cc1ccccc1S(=O)(=O)Cc1ccc(C(=O)NC2CC2)o1 . > 0.0479 mg/mL

Reported solubility kinetic for CCOC(=O)C(=O)Nc1ccccc1C(=O)OCC : what is it? > 0.0398 mg/mL

Any idea what its solubility kinetic is? The compound is CC(OC(=O)c1cnccn1)C(=O)c1ccccc1 (centres undefined) > 0.0384 mg/mL

Recorded solubility kinetic of Cc1ccc(OCC(O)CN2CCCC2)cc1 (centres undefined) , please. > 0.0353 mg/mL

Given the compound O=C(Cn1c(NCCO)nc2ccccc21)NCC1CCCO1 (centres undefined) , what is its reported solubility kinetic? > 0.0478 mg/mL

Reported solubility kinetic for COc1ccc(NC(C)=O)c(C)c1 : what is it? > 0.0269 mg/mL

Requested read-out: solubility kinetic. Entry: COc1ccc(NC(=O)NC(c2ccccc2)c2ccccc2)c(OC)c1 < 0.0004 mg/mL

Report solubility kinetic for Cc1c(N2C(=O)c3cccc4cccc(c34)C2=O)cnn1C please. > 0.0437 mg/mL

Which solubility kinetic value belongs to CNC(=O)CCc1ccc(OC)cc1 ? > 0.029 mg/mL

So what's the measured solubility kinetic for this one? O=C(Nc1ccc(Cl)cc1)NC1CCCCNC1=O (centres undefined) > 0.0423 mg/mL

Quick check: solubility kinetic of O=C(/C(=C/c1cccnc1)n1ccnc1)c1ccc(Cl)cc1Cl ? > 0.0516 mg/mL

Returns the measured solubility kinetic for the input compound. Input: CC(=O)CCN1C(=O)NC2(CCCc3ccccc32)C1=O (centres undefined) > 0.0429 mg/mL

I would be grateful if you could share the reported solubility kinetic for FC(F)(F)c1ccc(NC2=NCCC2)cc1 . > 0.0342 mg/mL

Fill blank: measured solubility kinetic of the compound O=C(CCN1C(=O)c2ccccc2S1(=O)=O)Nc1ccccc1F is ____. > 0.0523 mg/mL

What value of measured solubility kinetic is listed for Cc1ccccc1N=C(NO)c1cccnc1 ? > 0.0341 mg/mL

---

Kindly state solubility kinetic for each of the entries shown.
details: buffer; pH 7.4; 200.0 µM
Number in µg/mL, nothing else.

State the recorded solubility kinetic for this entry: Cc1cc(C)c2c(CN3CCOCC3)cc(=O)oc2c1 37.2

Recorded solubility kinetic for O=C(c1cc2ccccc2o1)N1CC=C(c2ccccc2)CC1 , please? 5.1

Look up solubility kinetic: CCCCC(=O)Nc1ccc(NCc2ccc(C)s2)cc1 16

Entry COc1ccc(C2N(c3ccccc3)C(=O)C2(F)F)cc1OC (centres undefined) : reported solubility kinetic = ? 36.2

Entry under review: CC1CCCCN1S(=O)(=O)c1ccc([N+](=O)[O-])cc1 (centres undefined) . Reported solubility kinetic? 22.5

---

settings: buffer; pH 7.4; 200.0 µM
Where solubility kinetic equals or exceeds 7 µg/mL, the correct label is 1; where it does not, the label is -1.

Test whether the molecule C[n+]1cccc(/C=N/Nc2nc(Cl)c(C#N)c(Cl)c2Cl)c1.[Cl-] records solubility kinetic of 7 µg/mL or higher. 1

Decide: is the reported value of solubility kinetic for Nc1nnc(SCC(=O)c2cccc([N+](=O)[O-])c2)s1 equal to or greater than 7 µg/mL? 1

Item COc1ccc(CNC2CCN(Cc3ccccc3)CC2)cc1 with solubility kinetic of 7 µg/mL or above? 1

Can CC1CCN(C(=O)COC(=O)c2ccc([N+](=O)[O-])o2)CC1 be said to have solubility kinetic at or above 7 µg/mL? 1

Tell me whether solubility kinetic is at least 7 µg/mL here: CC(C)N1CCC(=NNC(=O)c2cccs2)CC1 1

Threshold query (solubility kinetic >= 7 µg/mL) on C=CCn1c(=O)c2ccccc2n2c(SCC(=O)NC(C)C)nnc12 1

Tell me whether solubility kinetic is at least 7 µg/mL here: COc1cc2c(cc1OC)CN(c1ccc(F)cc1[N+](=O)[O-])CC2 1

Evaluate CC(=O)C1=C(C)NC(SCC(N)=O)=C(C#N)C1c1ccco1 (stereo unspecified) : solubility kinetic at minimum 7 µg/mL? 1

Evaluate Cc1cccc(C)c1NC(=O)CNC(=O)Cc1ccccc1[N+](=O)[O-] : solubility kinetic at minimum 7 µg/mL? 1

Could you verify whether the entry O=C(c1cccc(S(=O)(=O)N2CCc3ccccc32)c1)N1CCOCC1 shows solubility kinetic of no less than 7 µg/mL? 1

Please check the record O=C(CCl)Nc1ccc(S(=O)(=O)Nc2nccs2)cc1 and state if its solubility kinetic is at or above 7 µg/mL. 1

Form field: solubility kinetic at least 7 µg/mL? Entry: CCNC(=S)Nc1ccc(N2CCCCC2)cc1 1

Quick check, solubility kinetic >= 7 µg/mL? Cc1ccc(C2NC(c3ccc(C)cc3)C(C)C(=O)C2C)cc1 (stereo unspecified) -1

Check the entry CC(C)(C)C(=O)Nc1ccc(-c2cc3cc(Cl)ccc3o2)cc1 : does solubility kinetic equal or exceed 7 µg/mL? -1

I'd appreciate it if you could say whether S=C(NC1CC1)N1CCc2ccccc2C1 has solubility kinetic at least equal to 7 µg/mL. 1

Assess whether reported solubility kinetic for O=C(Nc1ccc2c(c1)OCCO2)c1ccc(Br)cc1 sits at 7 µg/mL or higher. -1

Decide: is the reported value of solubility kinetic for CC1CC(C)(C)NC(=S)N1CCCC(=O)Nc1ccc(F)cc1 (stereo unspecified) equal to or greater than 7 µg/mL? 1

Does the reported solubility kinetic for Cl.Nc1ncnc2sc3c(c12)CCNC3 fall at or above the 7 µg/mL mark? 1

Does CCCCc1ccc(NC(=S)N2CCN(c3ccccn3)CC2)cc1 have a reported solubility kinetic of at least 7 µg/mL? -1

Is solubility kinetic at least 7 µg/mL? Consider COC(=O)c1c(C)[nH]c(C(=O)C(C)OC(=O)C2CC2)c1C (stereo unspecified) 1

Reported solubility kinetic at or above 7 µg/mL? Cn1ncc([N+](=O)[O-])c1C(=O)Nc1ccccc1C(=O)O 1

Is it the case that Cc1csc(NC(=O)C2=COCCO2)n1 has solubility kinetic reaching or exceeding 7 µg/mL? 1

Hello, I need to know if CCCCc1nnc(NC(=O)COC)s1 has measured solubility kinetic not below 7 µg/mL. Thanks! 1

Does solubility kinetic meet or surpass 7 µg/mL for Nc1c(C(=O)N2CCCC2)sc2nc3c(cc12)CCCCCC3 ? -1

Is the recorded value of solubility kinetic equal to or greater than 7 µg/mL for this molecule? N#Cc1ccc(S(=O)(=O)NC2CC2)cc1 1

solubility kinetic >= 7 µg/mL for CN(C(=O)c1ccco1)c1nc(-c2ccc(Cl)cc2)cs1 ? -1

Answer whether solubility kinetic of NCCNC(=O)c1c(NC(=O)c2ccccc2)sc2c1CCCC2 is greater than or equal to 7 µg/mL. 1

Tell me whether solubility kinetic is at least 7 µg/mL here: COc1ccc(OC)c(CNS(=O)(=O)c2cn(C)cn2)c1 1

Record CNc1cc(C)c(C#N)c2nc3ccccc3n12 ; criterion: solubility kinetic no lower than 7 µg/mL. Met? -1

Hi, just wondering whether O=C(/C=C/c1ccc(Cl)cc1)Nc1nccs1 shows solubility kinetic of 7 µg/mL or higher. -1

Is it the case that COC(=O)C1CCN(C(=O)/C=C/c2ccc3c(c2)OCO3)CC1 has solubility kinetic reaching or exceeding 7 µg/mL? 1

Does CN/C(=C\[N+](=O)[O-])NCCSCc1csc(CN(C)C)n1 have a reported solubility kinetic of at least 7 µg/mL? 1

Given CC(=O)Nc1ccc(NC(=O)COC(=O)c2ccccn2)cc1 , state whether its solubility kinetic is at least 7 µg/mL. 1

Reported solubility kinetic reaches at least 7 µg/mL for Cc1csc(NC(=O)Cc2ccc(Br)cc2)n1 ? 1

Quick check: does CCCCn1c(O)c(C(C)=NCc2ccco2)c(=O)[nH]c1=O have solubility kinetic greater than or equal to 7 µg/mL? 1
